Answer each item with its documented Anti-PSMA Fab (SEQ ID NOs: 19, 20) signal.
# tested.on: T1, Anti-PSMA Fab (SEQ ID NOs: 19, 20)
# T1 construct: Biotinylated and captured on neutravidin coated plates in the phage ELISA; also called 006 PSMA Fab
# assay.info: phage binding ELISA; biotinylated PSMA Fab on neutravidin plate, bound phage detected with anti-M13 HRP
Where no end group is shown, it is not given here.

// WEKMCVPSWMCHFS (cysteine pairing not given here; also: fused to phage pIII, sequence and linker not given here, Peptide-180 library clone, tested as clonal phage supernatant; not shown: pIII of the bacteriophage to which the peptide is fused) [Phage-1895] : Anti-PSMA Fab (SEQ ID NOs: 19, 20) signal value = 2.03

// FEKWCTPAWMCAGW (cysteine pairing not given here; also: fused to phage pIII, sequence and linker not given here, Peptide-180 library clone, tested as clonal phage supernatant; not shown: pIII of the bacteriophage to which the peptide is fused) [Phage-1894] : Anti-PSMA Fab (SEQ ID NOs: 19, 20) signal value = 2.04

// VPKLCTPVWMCTGF (cysteine pairing not given here; also: fused to phage pIII, sequence and linker not given here, Peptide-180 library clone, tested as clonal phage supernatant; not shown: pIII of the bacteriophage to which the peptide is fused) [Phage-1892] : Anti-PSMA Fab (SEQ ID NOs: 19, 20) signal value = 2.04

// MEKLCIPAWMCDGM (cysteine pairing not given here; also: fused to phage pIII, sequence and linker not given here, Peptide-180 library clone, tested as clonal phage supernatant; not shown: pIII of the bacteriophage to which the peptide is fused) [Phage-1897] : Anti-PSMA Fab (SEQ ID NOs: 19, 20) signal value = 2.03

// SVKMCTPAWMCSGF (cysteine pairing not given here; also: fused to phage pIII, sequence and linker not given here, Peptide-180 library clone, tested as clonal phage supernatant; not shown: pIII of the bacteriophage to which the peptide is fused) [Phage-1899] : Anti-PSMA Fab (SEQ ID NOs: 19, 20) signal value = 2.03

// TDMWCTPMWMCMGF (cysteine pairing not given here; also: displayed as fusion to phage pIII, Peptide-180 library clone, tested as clonal phage supernatant; not shown: pIII of the bacteriophage to which the peptide is fused) [Phage-1901] : Anti-PSMA Fab (SEQ ID NOs: 19, 20) signal value = 2.03

// VLKWCTPAWMCEIF (cysteine pairing not given here; also: fused to phage pIII, sequence and linker not given here, Peptide-180 library clone, tested as clonal phage supernatant; not shown: pIII of the bacteriophage to which the peptide is fused) [Phage-1896] : Anti-PSMA Fab (SEQ ID NOs: 19, 20) signal value = 2.03

// LEKWCIPAWMCEWS (cysteine pairing not given here; also: fused to phage pIII, sequence and linker not given here, Peptide-180 library clone, tested as clonal phage supernatant; not shown: pIII of the bacteriophage to which the peptide is fused) [Phage-1891] : Anti-PSMA Fab (SEQ ID NOs: 19, 20) signal value = 2.04

// LIPWCIPAWMCTSD (cysteine pairing not given here; also: displayed as fusion to phage pIII, Peptide-180 library clone, tested as clonal phage supernatant; not shown: pIII of the bacteriophage to which the peptide is fused) [Phage-1902] : Anti-PSMA Fab (SEQ ID NOs: 19, 20) signal value = 2.03

// EIRLCTPSWMCMGF (cysteine pairing not given here; also: displayed as fusion to phage pIII, Peptide-180 library clone, tested as clonal phage supernatant; not shown: pIII of the bacteriophage to which the peptide is fused) [Phage-1905] : Anti-PSMA Fab (SEQ ID NOs: 19, 20) signal value = 2.02

// DVKWCIPAWMCEGF (cysteine pairing not given here; also: displayed as fusion to phage pIII, Peptide-180 library clone, tested as clonal phage supernatant; not shown: pIII of the bacteriophage to which the peptide is fused) [Phage-1904] : Anti-PSMA Fab (SEQ ID NOs: 19, 20) signal value = 2.02

// VSRLCIPTWMCDYS (cysteine pairing not given here; also: displayed as fusion to phage pIII, Peptide-180 library clone, tested as clonal phage supernatant; not shown: pIII of the bacteriophage to which the peptide is fused) [Phage-1900] : Anti-PSMA Fab (SEQ ID NOs: 19, 20) signal value = 2.03

// IDMRCTPNWMCIGF (cysteine pairing not given here; also: displayed as fusion to phage pIII, Peptide-180 library clone, tested as clonal phage supernatant; not shown: pIII of the bacteriophage to which the peptide is fused) [Phage-1903] : Anti-PSMA Fab (SEQ ID NOs: 19, 20) signal value = 2.03

// FDKWCIPPWMCQAL (cysteine pairing not given here; also: fused to phage pIII, sequence and linker not given here, Peptide-180 library clone, tested as clonal phage supernatant; not shown: pIII of the bacteriophage to which the peptide is fused) [Phage-1893] : Anti-PSMA Fab (SEQ ID NOs: 19, 20) signal value = 2.04

// AEKWCFPAWMCERP (cysteine pairing not given here; also: fused to phage pIII, sequence and linker not given here, Peptide-180 library clone, tested as clonal phage supernatant; not shown: pIII of the bacteriophage to which the peptide is fused) [Phage-1898] : Anti-PSMA Fab (SEQ ID NOs: 19, 20) signal value = 2.03
